Listed here: items and their measured DMS-153 TDCC EC50.
Experimental system: T1, human DLL3 on DLL3-expressing tumor cell lines (human, UniProt Q9NYJ7 27-618)
T1 sequence: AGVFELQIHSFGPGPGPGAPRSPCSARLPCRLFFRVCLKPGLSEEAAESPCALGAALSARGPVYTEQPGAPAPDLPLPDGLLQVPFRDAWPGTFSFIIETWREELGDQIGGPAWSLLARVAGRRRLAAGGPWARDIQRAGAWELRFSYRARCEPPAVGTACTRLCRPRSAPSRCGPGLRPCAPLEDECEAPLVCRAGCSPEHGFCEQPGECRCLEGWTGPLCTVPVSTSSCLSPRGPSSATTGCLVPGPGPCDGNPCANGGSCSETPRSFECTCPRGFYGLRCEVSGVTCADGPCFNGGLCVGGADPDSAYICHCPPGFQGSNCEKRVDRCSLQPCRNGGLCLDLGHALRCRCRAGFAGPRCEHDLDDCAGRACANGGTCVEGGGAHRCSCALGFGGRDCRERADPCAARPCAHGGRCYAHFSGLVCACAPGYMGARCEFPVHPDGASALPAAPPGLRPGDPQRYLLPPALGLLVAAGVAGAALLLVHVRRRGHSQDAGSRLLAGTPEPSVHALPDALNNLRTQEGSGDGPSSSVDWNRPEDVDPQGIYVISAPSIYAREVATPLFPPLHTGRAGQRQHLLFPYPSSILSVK
Protocol description: cell-based or functional assay
Expressed in nM, but write only the number.

Consider the worked cases shown below.
4D011 anti-DLL3 trispecific protein (other, also called 4D11; not shown: linker 1808, anti-albumin sdAb, linker 1808, anti-CD3 fragment, His6 1819) EVQLVESGGGLVQPGGSLTLSCAASGSSVRFLSMAWYRQAPGKKRELVAGISVDGSTDYIDSVKGRFTISRDNAKNSVYLQMNSLRAEDTAVYYCYAYRWRTRYTYWGQGTLVTVSS ... 0.098
2H02 anti-DLL3 trispecific protein (other, not shown: linker 1808, anti-albumin sdAb, linker 1808, anti-CD3 fragment, His6 1819) EVQLVESGGGLVQPGGSLTLSCVASGSTSSINAMAWYRRAPGKQRELAAGISSDGSKVYADSVKGRFTISRDNAKNSVYLQMNSLRAEDTAVYYCYYFHTVSGSSMRYWGQGTLVTVSS ... 0.096
2E05 anti-DLL3 trispecific protein (other, not shown: linker 1808, anti-albumin sdAb, linker 1808, anti-CD3 fragment, His6 1819) EVQLVESGGGLVQPGGSLTLSCVASGSPSSINAYGWYRRAPGKQRELVAGISSDGSKVYSDSVKGRFTISRDNAKNSVYLQMNSLRAEDTAVYYCYYFRTVSGSSMSYWGQGTLVTVSS ... 0.072

Please look at the following binder next.
Query block: Give its DMS-153 TDCC EC50 value. Item: 1A011 anti-DLL3 trispecific protein (other, also called 1A11; not shown: linker 1808, anti-albumin sdAb, linker 1808, anti-CD3 fragment, His6 1819) EVQLVESGGGLVQPGGSLTLSCVASGSTSSINAIGWYRRAPGKQRELVAGISSDGSKVYIDSVKGRFTISRDNAKNSVYLQMNSLRAEDTAVYYCYYFRTVSGSSYRYWGQGTLVTVSS
Result block: 0.17

Taken from patent US20240141072A1.
